- System: U2OS
- assay.method.text: Multiplex assay against U2OS
- Assay type: toxicity, cell-based
- stated.conditions: human, 12 h, 10 µM, compound concentration 10 uM, replicate 1

- compound: "O=C1COc2nccc(-c3ccccc3F)c2CN1Cc1cc(C(F)(F)F)cc(C(F)(F)F)c1"
  u: "%"
  Population Mitotic Cells (%): 29
- compound: "O=C(NCC(=O)N1CC[C@H](N[C@H]2CC[C@@](O)(c3ccc(-c4ncccn4)cn3)CC2)C1)c1cccc(C(F)(F)F)c1 [PF-4136309]"
  u: "%"
  Population Mitotic Cells (%): 31
- compound: "CC[C@H]1OC(=O)[C@H](C)[C@@H](O[C@H]2C[C@@](C)(OC)[C@@H](O)[C@H](C)O2)[C@H](C)[C@@H](O[C@@H]2O[C@H](C)C[C@H](N(C)C)[C@H]2O)[C@@]2(C)CC(C)=C(O2)[C@H](C)[C@@H](O)[C@]1(C)O"
  u: "%"
  Population Mitotic Cells (%): 34
- compound: "O=S(=O)(c1ccccc1)c1cnc2c(N3CCNCC3)cccc2c1 [INTEPIRDINE]"
  u: "%"
  Population Mitotic Cells (%): 41
- compound: "COc1c(C)cc(NC(=O)c2nn(Cc3ccc(F)cc3)c3c2CN(C(=O)c2ccc[nH]2)C[C@]3(C)C(N)=O)cc1C"
  u: "%"
  Population Mitotic Cells (%): 66
- compound: "CCCn1c(=O)c2[nH]c(C3CCCC3)nc2n(CCC)c1=O"
  u: "%"
  Population Mitotic Cells (%): 31
- compound: "CSc1ccccc1N1CCN(CCCCCC(=O)NC2CCCc3ccccc32)CC1.Cl (configuration not stated)"
  u: "%"
  Population Mitotic Cells (%): 29
